Data provenance: paper PMC6695681

target: VEGF-165 (Homo sapiens, UniProt P15692); construct: purchased ReliaTech GmbH (Wolfenbüttel, Germany); assay: Surface plasmon resonance binding of polyphenols to immobilised VEGF165; settings: PBST + 10% ethanol, 37 °C; read-out: KD
pKd: −log10 of the molar value.

[
  {
    "Compound": "O=C(O[C@@H]1Cc2c(O)cc(O)cc2O[C@@H]1c1cc(O)c(O)c(O)c1)c1cc(O)c(O)c(O)c1 [Epigallocatechin gallate (EGCG), Epigallocatechin gallate]",
    "Target": "VEGF-165 (Homo sapiens, UniProt P15692)",
    "pKd": 6.09
  }
]

###

molecular target: VEGF-165 (Homo sapiens, UniProt P15692); construct: purchased ReliaTech GmbH (Wolfenbüttel, Germany); assay: Surface plasmon resonance binding of polyphenols to immobilised VEGF165; settings: PBST + 1 M urea, 37 °C; read-out: KD
pKd: −log10 of the molar value.
Attribute measured: pKd

[
  {
    "Compound": "O=C(O[C@@H]1Cc2c(O)cc(O)cc2O[C@@H]1c1cc(O)c(O)c(O)c1)c1cc(O)c(O)c(O)c1 [Epigallocatechin gallate (EGCG), Epigallocatechin gallate]",
    "Attribute measured": "pKd",
    "Quantitative result": 7.15
  }
]

###

biological target: VEGF-165 (Homo sapiens, UniProt P15692); construct: purchased ReliaTech GmbH (Wolfenbüttel, Germany); experiment: Surface plasmon resonance binding of polyphenols to immobilised VEGF165; details: PBST + 30% ethanol, 37 °C; read-out: KD
Attribute measured: Kd (nM)

[
  {
    "Compound": "O=C(O[C@@H]1Cc2c(O)cc(O)cc2O[C@@H]1c1cc(O)c(O)c(O)c1)c1cc(O)c(O)c(O)c1 [Epigallocatechin gallate (EGCG), Epigallocatechin gallate]",
    "Quantitative result": 470
  }
]

###

Molecular target: VEGF-165 (Homo sapiens, UniProt P15692)
Construct: purchased ReliaTech GmbH (Wolfenbüttel, Germany)
Sequence (P15692 27-191 isoform P15692-4 limits assumed): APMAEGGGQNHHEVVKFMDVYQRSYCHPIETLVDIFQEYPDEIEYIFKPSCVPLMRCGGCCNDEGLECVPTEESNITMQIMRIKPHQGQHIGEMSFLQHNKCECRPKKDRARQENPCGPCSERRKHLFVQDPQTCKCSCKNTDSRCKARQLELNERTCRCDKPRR
Assay: Surface plasmon resonance binding of polyphenols to immobilised VEGF165
Settings: PBST, 37 °C; read-out: dissociation rate constant kd
Response field label: string, one of Condition met (koff strictly below 0.0009 s⁻¹) or Condition not met.

[
  {
    "Molecule": "Oc1cc(O)c2c(c1)O[C@H](c1ccc(O)c(O)c1)[C@H](O)C2 [(-) Epicatechin]",
    "Discrete label": "Condition met"
  },
  {
    "Molecule": "Oc1cc(O)c2c(c1)OC(c1ccc(O)c(O)c1)C(O)C2c1c(O)cc(O)c2c1OC(c1ccc(O)c(O)c1)C(O)C2c1c(O)cc(O)c2c1OC(c1ccc(O)c(O)c1)C(O)C2 (centres unmarked)",
    "Discrete label": "Condition not met"
  },
  {
    "Molecule": "Oc1cc(O)c2c(c1)O[C@H](c1ccc(O)c(O)c1)[C@@H](O)C2 [(+) Catechin]",
    "Discrete label": "Condition not met"
  },
  {
    "Molecule": "O=C(O[C@@H]1Cc2c(O)cc(O)cc2O[C@@H]1c1ccc(O)c(O)c1)c1cc(O)c(O)c(O)c1 [Epicatechin gallate (ECG), Epicatechin gallate]",
    "Discrete label": "Condition met"
  },
  {
    "Molecule": "Oc1cc(O)c2c(c1)OC(c1ccc(O)c(O)c1)C(O)C2c1c(O)cc(O)c2c1OC(c1ccc(O)c(O)c1)C(O)C2 (centres unmarked)",
    "Discrete label": "Condition not met"
  },
  {
    "Molecule": "O=c1c(O)c(-c2ccc(O)c(O)c2)oc2cc(O)c(O)c(O)c12",
    "Discrete label": "Condition met"
  },
  {
    "Molecule": "O=C(O)c1cc(O)c(O)c(O)c1",
    "Discrete label": "Condition met"
  },
  {
    "Molecule": "O=C(O[C@@H]1Cc2c(O)cc(O)cc2O[C@@H]1c1cc(O)c(O)c(O)c1)c1cc(O)c(O)c(O)c1 [Epigallocatechin gallate (EGCG), Epigallocatechin gallate]",
    "Discrete label": "Condition met"
  }
]

###

target: VEGF-165 (Homo sapiens); construct: purchased ReliaTech GmbH (Wolfenbüttel, Germany); test: Surface plasmon resonance binding of polyphenols to immobilised VEGF165; conditions: PBST + 0.5 M NaCl, 37 °C; read-out: KD

[
  {
    "Compound": "O=C(O[C@@H]1Cc2c(O)cc(O)cc2O[C@@H]1c1cc(O)c(O)c(O)c1)c1cc(O)c(O)c(O)c1 [Epigallocatechin gallate (EGCG), Epigallocatechin gallate]",
    "Unit": "nM",
    "Kd": 60
  }
]

###

biological target: VEGF-165 (Homo sapiens); construct: purchased ReliaTech GmbH (Wolfenbüttel, Germany); test: Surface plasmon resonance binding of polyphenols to immobilised VEGF165; conditions: PBST, 37 °C; read-out: equilibrium constant KD
pKd: −log10 of the molar value.

[
  {
    "Compound": "O=c1c(O)c(-c2cc(O)c(O)c(O)c2)oc2cc(O)cc(O)c12 [Myricetin]",
    "pKd": 5.35
  },
  {
    "Compound": "O=C(O)c1cc(O)c(O)c(O)c1 [Gallic acid]",
    "pKd": 5.26
  },
  {
    "Compound": "O=C(O[C@@H]1Cc2c(O)cc(O)cc2O[C@@H]1c1cc(O)c(O)c(O)c1)c1cc(O)c(O)c(O)c1 [Epigallocatechin gallate (EGCG), Epigallocatechin gallate]",
    "pKd": 6.95
  },
  {
    "Compound": "Oc1cc(O)c2c(c1)OC(c1ccc(O)c(O)c1)C(O)C2c1c(O)cc(O)c2c1OC(c1ccc(O)c(O)c1)C(O)C2c1c(O)cc(O)c2c1OC(c1ccc(O)c(O)c1)C(O)C2c1c(O)cc(O)c2c1OC(c1ccc(O)c(O)c1)C(O)C2c1c(O)cc(O)c2c1OC(c1ccc(O)c(O)c1)C(O)C2c1c(O)cc(O)c2c1OC(c1ccc(O)c(O)c1)C(O)C2c1c(O)cc(O)c2c1OC(c1ccc(O)c(O)c1)C(O)C2c1c(O)cc(O)c2c1OC(c1ccc(O)c(O)c1)C(O)C2c1c(O)cc(O)c2c1OC(c1ccc(O)c(O)c1)C(O)C2 (centres unmarked) [Procyanidin Dp9]",
    "pKd": 6.47
  },
  {
    "Compound": "Oc1cc(O)c2c(c1)O[C@H](c1ccc(O)c(O)c1)[C@H](O)C2 [(-) Epicatechin]",
    "pKd": 5.57
  }
]

###

target: VEGF-165 (Homo sapiens, UniProt P15692); construct: purchased ReliaTech GmbH (Wolfenbüttel, Germany); test: Surface plasmon resonance binding of polyphenols to immobilised VEGF165; settings: PBST, 37 °C; read-out: association rate constant ka;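 also: running buffer PBST with 1% DMSO, sensorgrams double referenced against a VEGF-free reference cell and blank injections, kinetics fitted to a 1:1 Langmuir binding model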
Response field label: string, one of 1 (kon strictly below 500 M⁻¹ s⁻¹) or 0.

[
  {
    "Compound": "O=C(O[C@@H]1Cc2c(O)cc(O)cc2O[C@@H]1c1ccc(O)c(O)c1)c1cc(O)c(O)c(O)c1 [Epicatechin gallate (ECG), Epicatechin gallate]",
    "Discrete label": 0
  },
  {
    "Compound": "Oc1cc(O)c2c(c1)OC(c1ccc(O)c(O)c1)C(O)C2c1c(O)cc(O)c2c1OC(c1ccc(O)c(O)c1)C(O)C2c1c(O)cc(O)c2c1OC(c1ccc(O)c(O)c1)C(O)C2 (centres unmarked)",
    "Discrete label": 0
  },
  {
    "Compound": "Oc1cc(O)c2c(c1)O[C@H](c1ccc(O)c(O)c1)[C@H](O)C2 [(-) Epicatechin]",
    "Discrete label": 1
  },
  {
    "Compound": "O=c1c(O)c(-c2ccc(O)c(O)c2)oc2cc(O)c(O)c(O)c12",
    "Discrete label": 0
  },
  {
    "Compound": "O=C(O[C@@H]1Cc2c(O)cc(O)cc2O[C@@H]1c1cc(O)c(O)c(O)c1)c1cc(O)c(O)c(O)c1 [Epigallocatechin gallate (EGCG), Epigallocatechin gallate]",
    "Discrete label": 0
  },
  {
    "Compound": "O=C(O)c1cc(O)c(O)c(O)c1",
    "Discrete label": 1
  },
  {
    "Compound": "Oc1cc(O)c2c(c1)O[C@H](c1ccc(O)c(O)c1)[C@@H](O)C2 [(+) Catechin]",
    "Discrete label": 1
  },
  {
    "Compound": "Oc1cc(O)c2c(c1)OC(c1ccc(O)c(O)c1)C(O)C2c1c(O)cc(O)c2c1OC(c1ccc(O)c(O)c1)C(O)C2 (centres unmarked)",
    "Discrete label": 0
  }
]
